Biological target: T1, recombinant cynomolgus monkey PD-1 expressed with a C-terminal myc-myc-hexahistidine tag (cynomolgus monkey (Macaca fascicularis))
T1 construct: monomeric; also called MfPD-1-MMH
T1 chain: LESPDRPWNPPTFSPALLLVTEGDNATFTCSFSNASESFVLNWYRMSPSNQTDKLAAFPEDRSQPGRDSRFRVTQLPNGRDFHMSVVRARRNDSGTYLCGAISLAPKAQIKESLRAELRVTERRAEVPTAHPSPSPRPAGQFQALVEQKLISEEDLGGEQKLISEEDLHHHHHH
Assay: SPR, mAb captured, 25C;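 note: rates from fitting Biacore data for PD-1 binding to anti-PD-1 antibodies with a 1:1 model, KD computed as koff/kon and t½ as ln2/(60·koff)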
Readout name: koff (s⁻¹)
Quick reminder: number only, in s⁻¹, skip the unit.

H4H7798N (antibody, human IgG4 S228P, kappa, V domains shown) VH: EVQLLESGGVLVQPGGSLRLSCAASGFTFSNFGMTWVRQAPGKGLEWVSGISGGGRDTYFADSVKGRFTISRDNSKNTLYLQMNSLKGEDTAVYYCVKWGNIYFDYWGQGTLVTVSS VL: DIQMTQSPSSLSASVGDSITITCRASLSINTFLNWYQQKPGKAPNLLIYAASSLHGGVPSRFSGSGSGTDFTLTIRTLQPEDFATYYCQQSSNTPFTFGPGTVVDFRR ... 0.000551

IN: Which measured koff value corresponds to H1M7789N (antibody, mouse IgG1, V domains shown, Human variable regions, mouse IgG1 Fc) VH: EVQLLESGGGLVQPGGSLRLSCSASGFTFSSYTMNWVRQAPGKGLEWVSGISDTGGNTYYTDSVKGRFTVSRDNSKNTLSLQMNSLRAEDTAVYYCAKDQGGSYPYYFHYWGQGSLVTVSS VL: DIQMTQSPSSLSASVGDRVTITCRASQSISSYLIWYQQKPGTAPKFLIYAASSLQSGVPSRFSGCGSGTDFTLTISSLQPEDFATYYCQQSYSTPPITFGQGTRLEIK ?
OUT: 0.000123

IN: Requested field: koff. Item: H2aM7798N (antibody, mouse IgG2a, V domains shown, Human variable regions, mouse IgG2a Fc; also called H2M7798N) VH: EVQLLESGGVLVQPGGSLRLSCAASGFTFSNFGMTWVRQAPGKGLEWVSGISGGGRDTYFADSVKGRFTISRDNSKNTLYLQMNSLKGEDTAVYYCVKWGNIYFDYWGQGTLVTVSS VL: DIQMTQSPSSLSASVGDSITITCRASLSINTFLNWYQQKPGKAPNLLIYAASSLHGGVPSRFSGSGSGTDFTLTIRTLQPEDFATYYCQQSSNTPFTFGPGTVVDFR
OUT: 0.000393

These data points were gathered from patent US20150203579A1.
